Where do the numbers come from? From ChEMBL document CHEMBL4689842.

# System: Fibroblast
# Experimental Details: Incucyte cell viability with human fibroblast; note: filed as whole numbers so only -1 and 0 and 1 occur
# Type: toxicity, cell-based
# Recorded Conditions: 6 h, 10 µM, compound concentration 10 uM, replicate number 1, timepoint 6 hours
Observable: Growth Rate
// keep it numeric: no unit symbol after the value

[[record]]
chemical_smiles = "Cc1c(NC(=O)c2cc(C(N)=O)nc3cc(F)ccc23)c(C(F)(F)F)nn1Cc1ccc(C(C)(C)C)cc1"
reading = 0

[[record]]
chemical_smiles = "CO[C@@H](C)c1c(Nc2ccc([C@@H](N(C)C(=O)C3CCS(=O)(=O)CC3)C(F)(F)F)cc2)cnc2cc(Cl)nn12"
reading = 0

[[record]]
chemical_smiles = "CCC(=N\\O)/C(C)=C/c1ccc(F)c(C)c1"
reading = 0


Here is the next item to consider.
Recall the recorded Growth Rate for N#Cc1c[nH]c2c(C(=O)N3CCN(CCc4ccc(F)cc4)CC3)cccc12 with Fibroblast and state it.
0

====

# Test system: U2OS
# Experimental Details: Multiplex assay against U2OS
# Assay type: toxicity, cell-based
# Recorded Conditions: human, 48 h, 1 µM, compound concentration 1 uM, replicate 2
Collected Population Mitotic Cells (%) values appear next to each entry.
Answer in %, number only, no unit symbol.

Recorded Population Mitotic Cells (%), per entry:
[[record]]
compound = "CCOc1cc(C(=O)N2CCC(N3CCN(C)CC3)CC2)ccc1Nc1ncc2c(n1)N(C1CCCC1)c1ccccc1C(=O)N2C"
reading = 57

[[record]]
compound = "Cl.Oc1ccc2c3c1O[C@H]1c4[nH]c5c(c4C[C@@]4(O)[C@@H](C2)N(CC2CC2)CC[C@]314)C[C@@]1(O)[C@H]2Cc3ccc(O)c4c3[C@@]1(CCN2CC1CC1)[C@H]5O4"
reading = 85


I would be grateful if you could share the reported Population Mitotic Cells (%) for C=C1/C(=C\C=C2/CCC[C@]3(C)[C@@H]([C@H](C)/C=C/[C@H](C)C(C)C)CC[C@@H]23)C[C@@H](O)C[C@@H]1O [DOXERCALCIFEROL] .
57

Find the recorded Population Mitotic Cells (%) belonging to CN1CCC(=C2c3ccccc3CC(=O)c3sccc32)CC1.O=C(O)/C=C/C(=O)O [KETOTIFEN FUMARATE] and report it.
71

# lookup: Population Mitotic Cells (%) of Cc1cc(C)c(S(=O)(=O)N(Cc2ccc(-c3cccc(S(C)(=O)=O)c3)cc2)Cc2ccc(C(F)(F)F)o2)c(C)c1
50

====

# Test system: U2OS
# Experimental Details: Multiplex assay against U2OS
# Format: toxicity, cell-based
# Recorded Conditions: human, 48 h, 1 µM, compound concentration 1 uM, replicate 2
Reported Total Cell Count by item:
Please give the numeric answer without any surrounding text.

These recorded examples may help you get a feel for the data.
[[record]]
molecule = "O=C(Nc1ccc(Cl)cc1)Nc1cccc(-c2cccc(N3CCCC3)n2)c1"
reading = 110

[[record]]
molecule = "Cc1ccc(C(=O)Nc2cccc(C(F)(F)F)c2)cc1Nc1nc(-c2cccnc2)nc2c1cnn2C"
reading = 93

[[record]]
molecule = "CNc1cc(Oc2cc(C(=O)Nc3cc(N4CCN(C)CC4)cc(C(F)(F)F)c3)ccc2C)ncn1"
reading = 51

[[record]]
molecule = "CN1C2CCC1CC(OC(c1ccc(F)cc1)c1ccc(F)cc1)C2.Cl (centres undefined)"
reading = 119

[[record]]
molecule = "O=C1N/C(=N/c2ccccc2F)S/C1=C\\c1ccc(C(=O)O)cc1"
reading = 76


Please state recorded Total Cell Count (tested on U2OS) of Cc1cc(C)c(S(=O)(=O)N(Cc2ccc(-c3cccc(S(C)(=O)=O)c3)cc2)Cc2ccc(C(F)(F)F)o2)c(C)c1
123

Under U2OS: Total Cell Count value of COc1cc(N2CCN(C)CC2)ccc1Nc1ncc2c(n1)N(C)c1ccccc1C(=O)N2C ?
88

Reported Total Cell Count for U2OS, given O=C(Nc1ccc(-n2nc(-c3cccnc3)cc2C(F)(F)F)cn1)c1ccc(-c2ccccc2)c(F)c1 ?
146

Quick check: Total Cell Count on U2OS, item CCCS(=O)(=O)c1nc(NC2CC2)cc(-c2ccc3c(ccn3C3CC(C)(C)NC(C)(C)C3)c2)n1 ?
1197
